Sourced from patent US6369222B1

Consider the following molecules and their measured melting point readings.

# structure, melting point
data = [
    ("Cc1nc(N2CCc3nc(C)sc3CC2)c([N+](=O)[O-])c(=O)[nH]1", "> 200 °C"),
    ("Cc1nc(O)c([N+](=O)[O-])c(N2CCc3cncnc3CC2)n1", "> 200 °C"),
    ("Cc1nc(N2CCc3nc(N)sc3CC2)c([N+](=O)[O-])c(=O)[nH]1", "> 200 °C"),
    ("Cc1nc(O)c2c(n1)CCN(c1nc(C)nc(O)c1[N+](=O)[O-])CC2", "> 200 °C"),
    ("Cc1nc(N2CCc3ccsc3CC2)c([N+](=O)[O-])c(=O)[nH]1", "> 200 °C"),
    ("CCn1c(C)nc(N2CCc3nc(C)sc3CC2)c([N+](=O)[O-])c1=O", "164.2 to 166.8 °C"),
    ("CCn1c(C)nc(N2CCc3nc(N)sc3CC2)c([N+](=O)[O-])c1=O", "> 200 °C"),
]
